Experiment: Acute toxicity, i.v., up-and-down method
Details: mouse, in vivo, iv
I'd be grateful if you could share measured LD50 for these entries.
Answers are plain numbers, in mg/kg.

compound | unit.symbol | recorded.measurement
CCOC(=O)C1=C(C)NC(COC(=O)NC2CCCCC2)=C(C(=O)OCCOC)C1c1cccc([N+](=O)[O-])c1 (stereo not drawn) | mg/kg | 88
CCCOCCOC(=O)C1=C(C)NC(COC(=O)NC)=C(C(=O)OCCOCCC)C1c1cccc([N+](=O)[O-])c1 (stereo not drawn) | mg/kg | 104

I have 7 compounds here; please give me LD50 for each one.
1. CCCOCCOC(=O)C1=C(COC(N)=O)NC(C)=C(C(=O)OCCN(C)Cc2ccccc2)C1c1cccc([N+](=O)[O-])c1 (stereo not drawn)
2. CCOC(=O)C1=C(COC(=O)NC)NC(C)=C(C(=O)OC(C)C)C1c1cccc([N+](=O)[O-])c1 (stereo not drawn)
3. COC(=O)C1=C(C)NC(COC(N)=O)=C(C(=O)OC)C1c1cccc([N+](=O)[O-])c1 (stereo not drawn)
4. COCCOC(=O)C1=C(C)NC(COC(N)=O)=C(C(=O)OCCOC)C1c1ccccc1Cl (stereo not drawn)
5. CCOC(=O)C1=C(C)NC(COC(N)=O)=C(C(=O)OCC)C1c1ccccc1[N+](=O)[O-] (stereo not drawn)
6. CNC(=O)OCC1=C(C(=O)OC)C(c2cccc([N+](=O)[O-])c2)C(C(=O)OCCN(C)Cc2ccccc2)=C(C)N1 (stereo not drawn)
7. CCOC(=O)C1=C(C)NC(COC(N)=O)=C(C(=O)OCC)C1c1cccc([N+](=O)[O-])c1 (stereo not drawn)

Reply:
1: 168; 2: 37; 3: 167; 4: 184; 5: 104; 6: 146; 7: 207

I have 4 compounds here; please give me LD50 for each one.
1. CCCOCCOC(=O)C1=C(COC(N)=O)NC(C)=C(C(=O)OCC)C1c1cccc([N+](=O)[O-])c1 (stereo not drawn)
2. CCOC(=O)C1=C(COC(=O)Nc2ccc(Cl)cc2)NC(C)=C(C(=O)OC(C)C)C1c1cccc([N+](=O)[O-])c1 (stereo not drawn)
3. CCCOCCOC(=O)C1=C(C)NC(COC(N)=O)=C(C(=O)OCC)C1c1cccc([N+](=O)[O-])c1 (stereo not drawn)
4. CCCOCCOC(=O)C1=C(C)NC(COC(N)=O)=C(C(=O)OCCOCCC)C1c1cccc([N+](=O)[O-])c1 (stereo not drawn)

Reply:
123
83
136
123

----------
Tested on: isolated hearts of rabbits
Assay: Coronary vasodilation in isolated rabbit hearts (Langendorff method)
Conditions: Oryctolagus cuniculus, Table 1(a); isolated rabbit heart; dosage required to increase coronary outflow by 50%; read-out: Coronary vasodilation ICD50
measurement.name: EC50 (µg/mL)
One number for each entry, in µg/mL.

Take a look at these entries with their results.
compound | system | EC50 [µg/mL]
CCOC(=O)C1=C(COC(=O)NC)NC(C)=C(C(=O)OC(C)C)C1c1cccc([N+](=O)[O-])c1 (stereo not shown) | isolated hearts of rabbits | 0.23
COC(=O)C1=C(C)NC(C)=C(C(=O)OC)C1c1ccccc1[N+](=O)[O-] | isolated hearts of rabbits | 0.29
COC(=O)C1=C(C)NC(COC(N)=O)=C(C(=O)OC)C1c1cccc([N+](=O)[O-])c1 (stereo not shown) | isolated hearts of rabbits | 0.36
CCOC(=O)C1=C(C)NC(COC(N)=O)=C(C(=O)OCC)C1c1ccccc1[N+](=O)[O-] (stereo not shown) | isolated hearts of rabbits | 0.48
CCOC(=O)C1=C(COC(N)=O)NC(C)=C(C(=O)OC(C)C)C1c1cccc([N+](=O)[O-])c1 (stereo not shown) | isolated hearts of rabbits | 0.24
CCOC(=O)C1=C(C)NC(COC(=O)NC)=C(C(=O)OCC)C1c1ccccc1[N+](=O)[O-] (stereo not shown) | isolated hearts of rabbits | 0.45

Next item in the queue.
Query: Read off the recorded EC50 for CCOC(=O)C1=C(C)NC(COC(N)=O)=C(C(=O)OCC)C1c1cccc([N+](=O)[O-])c1 (stereo not shown)
Reply: 0.24
